Provide the reported optical density of each item.
Target: T1, biotinylated goat anti-human kappa light chain
T1 construct: positive control of the ELISA
Experiment: ELISA, positive control; also: test concentration or dose not given here
Return type: number; implicit unit OD.

Input: Entry under review: 367_G04 (antibody, V domains shown, Group III) VH: EVQLLESGGGLVQPGGSLRLSCAASGFTFSSYSMNWVRQAPGKGLEWVAGINYNSGYTSYADSVKGRFTISRDNSKNTLYLQMNSLRAEDTAVYYCARGANWHDTHLDYWGQGTLVTVSS VL: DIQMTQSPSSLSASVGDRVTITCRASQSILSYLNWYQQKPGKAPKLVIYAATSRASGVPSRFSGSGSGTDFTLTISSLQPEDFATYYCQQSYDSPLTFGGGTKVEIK . Reported optical density?
Output: 3.36

Input: Also 374_G10 (antibody, V domains shown, Group III) VH: EVQLLESGGGLVQPGGSLRLSCAASGFTFSSYSMNWVRQAPGKGLEWVSSINYNSGYTSYADSVKGRFTISRDNSKNTLYLQMNSLRAEDTAVYYCARGANWHDTHLDYWGQGTLVTVSS VL: DIQMTQSPSSLSASVGDRVTITCRASQSIVSYLNWYQQKPGKAPKLVIYAVTSRASGVPSRFSGSGSGTDFTLTISSLQPEDFATYYCQQSYDSPLTFGGGTKVEIK ?
Output: 3.23

Input: Also 374_E10 (antibody, V domains shown, Group III) VH: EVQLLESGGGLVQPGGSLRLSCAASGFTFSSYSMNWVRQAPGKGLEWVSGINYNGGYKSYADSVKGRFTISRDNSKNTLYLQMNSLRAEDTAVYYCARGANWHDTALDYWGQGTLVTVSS VL: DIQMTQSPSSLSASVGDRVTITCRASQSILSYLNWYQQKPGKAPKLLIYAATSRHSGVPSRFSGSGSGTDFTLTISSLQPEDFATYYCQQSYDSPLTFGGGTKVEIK ?
Output: 3.38

Input: Also 375_E06 (antibody, V domains shown, Group III) VH: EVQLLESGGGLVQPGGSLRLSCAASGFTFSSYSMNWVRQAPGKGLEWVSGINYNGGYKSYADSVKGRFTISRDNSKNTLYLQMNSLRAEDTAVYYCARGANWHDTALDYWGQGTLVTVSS VL: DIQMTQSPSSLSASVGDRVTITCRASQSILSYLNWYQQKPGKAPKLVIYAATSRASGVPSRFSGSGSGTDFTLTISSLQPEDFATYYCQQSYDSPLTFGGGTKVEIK ?
Output: 3.33

Input: Also 371_F11 (antibody, V domains shown, Group III) VH: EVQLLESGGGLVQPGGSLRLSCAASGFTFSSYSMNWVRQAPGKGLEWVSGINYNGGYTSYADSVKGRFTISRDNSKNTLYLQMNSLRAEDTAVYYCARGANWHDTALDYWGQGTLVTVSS VL: DIQMTQSPSSLSASVGDRVTITCRASQSIISYVNWYQQKPGKAPKLLIYAVTSRASGVPSRFSGSGSGTDFTLTISSLQPEDFATYYCQQSYDLPLTFGGGTKVEIK ?
Output: 3.68
